- experiment description: Toxicity measured in mouse by subcutaneous administration
- Format: organism-based
- condition parameters: in vivo, sc
measure name: LD50

{"compound": "NCc1cc(O)no1", "measure name": "LD50", "assay value": "4.2 mg/kg"}
{"compound": "CCCC(CCC)C(=O)[O-].[Na+] [VALPROATE SODIUM]", "measure name": "LD50", "assay value": "> 1000 mg/kg"}
{"compound": "COc1ccc(N2C(=O)/C(=C3/CCCN3C)c3ccccc32)cc1", "measure name": "LD50", "assay value": "> 1000 mg/kg"}
{"compound": "COc1ccc(N2C(=O)/C(=C3/CCCN3C)c3ccccc32)cc1Cl", "measure name": "LD50", "assay value": "≥ 320 mg/kg"}
{"compound": "NC(=O)CCC/N=C(\\c1ccc(Cl)cc1)c1cc(F)ccc1O [PROGABIDE]", "measure name": "LD50", "assay value": "> 1000 mg/kg"}
{"compound": "CN1CCC/C1=C1/C(=O)N(c2cccc(Cl)c2)c2ccccc21", "measure name": "LD50", "assay value": "> 1000 mg/kg"}
